Assay: Relative lipophilicity
Type: physicochemical
Conditions: TLC, acetone/water 2:1 mobile phase
outcome_measure: Rm
Give bare numbers.

COc1cc2c(cc1OC)C(c1ccccc1)=NN(C)C(=O)C2 | -0.003
COc1cc2c(cc1OC)C(c1ccc(N)cc1)=NN=C(S)C2 | -0.308

Would you mind giving Rm for every compound in the list below?
1. COc1cc2c(cc1OC)C(c1cccc([N+](=O)[O-])c1)=NN=C(S)C2
2. COc1cc2c(cc1OC)C(c1ccc(N)cc1)=NN(C)C(=S)C2
3. CC1=NN=C(c2ccc(N)cc2)c2cc3c(cc2C1)OCO3 [GYKI-52466]
4. COc1cc2c(cc1OC)C(c1cccc(N)c1)=NN=C(S)C2
5. COc1cc2c(cc1OC)C(c1ccc([N+](=O)[O-])cc1)=NN=C(S)C2
6. COc1cc2c(cc1OC)C(c1cccc([N+](=O)[O-])c1)=NNC(=O)C2
7. COc1cc2c(cc1OC)C(c1cccc(N)c1)=NNC(=O)C2
8. COc1cc2c(cc1OC)C(c1ccc([N+](=O)[O-])cc1)=NN(C)C(=O)C2

[0.092, -0.072, -0.308, -0.259, 0.122, -0.135, -0.542, 0.11]

====

Experiment: Relative lipophilicity
Type: physicochemical
Conditions: TLC, acetone/water 2:1 mobile phase
Rule: Rm below 0.01 gives TRUE, anything at or above gives FALSE.

COc1cc2c(cc1OC)C(c1ccc(Br)cc1)=NNC(=O)C2 | FALSE
COc1cc2c(cc1OC)C(c1ccc([N+](=O)[O-])cc1)=NN(C)C(=S)C2 | FALSE
COc1cc2c(cc1OC)C(c1ccc([N+](=O)[O-])cc1)=NNC(=O)C2 | TRUE

hey, is Rm for COc1cc2c(cc1OC)C(c1ccccc1)=NNC(=O)C2 lower than 0.01 or not? TRUE

Another: COc1cc2c(cc1OC)C(c1ccc(N)cc1)=NNC(=O)C2 TRUE

Another: COc1cc2c(cc1OC)C(c1ccc(Cl)cc1)=NN=C(S)C2 FALSE

Another: COc1cc2c(cc1OC)C(c1ccccc1)=NN=C(S)C2 FALSE

Another: COc1cc2c(cc1OC)C(c1ccc(N)cc1)=NN(C)C(=O)C2 TRUE

Another: COc1cc2c(cc1OC)C(c1ccc(Cl)cc1)=NNC(=O)C2 FALSE

Another: COc1cc2c(cc1OC)C(c1ccc(Br)cc1)=NN(C)C(=S)C2 FALSE

Another: COc1cc2c(cc1OC)C(c1ccc(Br)cc1)=NN=C(S)C2 FALSE

Another: COc1cc2c(cc1OC)C(c1ccc(Br)cc1)=NN(C)C(=O)C2 FALSE

Another: COc1cc2c(cc1OC)C(c1ccccc1)=NN(C)C(=S)C2 FALSE

====

Assay: Therapeutic index (TD50/ED50) from the clonic phase of the audiogenic seizures
outcome_measure: selectivity ratio
Answers are plain numbers.

Solved entries (count: 6):
COc1cc2c(cc1OC)C(c1ccc(Br)cc1)=NN=C(S)C2 | 1.4
COc1cc2c(cc1OC)C(c1ccc(N)cc1)=NN=C(S)C2 | 6.76
COc1cc2c(cc1OC)C(c1ccc(Cl)cc1)=NN=C(S)C2 | 3.26
COc1cc2c(cc1OC)C(c1cccc(N)c1)=NN=C(S)C2 | 4.08
COc1cc2c(cc1OC)C(c1ccc(N)cc1)=NN(C)C(=S)C2 | 4.35
COc1cc2c(cc1OC)C(c1ccccc1)=NN=C(S)C2 | 5.02

Bench note: what selectivity ratio did COc1cc2c(cc1OC)C(c1ccccc1)=NN(C)C(=S)C2 show? 3.17
